- test_target: T1, B7H3 (human, UniProt Q5ZPR3 29-534)
- T1 sequence (looked up): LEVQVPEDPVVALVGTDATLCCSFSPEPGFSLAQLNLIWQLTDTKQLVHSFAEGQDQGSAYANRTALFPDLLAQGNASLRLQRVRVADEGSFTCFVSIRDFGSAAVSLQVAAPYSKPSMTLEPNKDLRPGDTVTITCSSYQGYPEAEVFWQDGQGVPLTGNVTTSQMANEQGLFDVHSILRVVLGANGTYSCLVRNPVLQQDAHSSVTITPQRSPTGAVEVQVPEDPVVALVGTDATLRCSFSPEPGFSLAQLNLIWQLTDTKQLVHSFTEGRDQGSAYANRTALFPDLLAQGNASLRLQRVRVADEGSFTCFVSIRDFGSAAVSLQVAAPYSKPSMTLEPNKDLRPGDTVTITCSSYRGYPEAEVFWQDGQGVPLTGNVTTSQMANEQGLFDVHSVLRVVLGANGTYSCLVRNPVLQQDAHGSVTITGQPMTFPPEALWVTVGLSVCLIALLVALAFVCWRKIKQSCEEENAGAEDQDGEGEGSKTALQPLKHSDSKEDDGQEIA
- test_summary: cell-based or functional assay
endpoint_name: Emax (%), ADC direct killing, Capan-1 (Low), 3D
Just so you know, I need the unit written after the number.

ADC4-13 (antibody, human IgG1, kappa, V domains shown, conjugator-linker-payload on cysteine thiols after TCEP reduction (DAR8), maleimide hydrolysed; residues not numbered; structure given only as a drawing) VH: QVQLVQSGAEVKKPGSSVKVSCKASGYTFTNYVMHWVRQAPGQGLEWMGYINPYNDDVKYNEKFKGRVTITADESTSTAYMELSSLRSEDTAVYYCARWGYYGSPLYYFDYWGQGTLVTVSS VL: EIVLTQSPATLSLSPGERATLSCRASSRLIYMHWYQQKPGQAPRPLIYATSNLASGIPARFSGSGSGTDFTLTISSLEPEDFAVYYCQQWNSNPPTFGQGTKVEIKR; 58.5%
ADC4-12 (antibody, human IgG1, kappa, V domains shown, conjugator-linker-payload on cysteine thiols after TCEP reduction (DAR8), maleimide hydrolysed; residues not numbered; structure given only as a drawing) VH: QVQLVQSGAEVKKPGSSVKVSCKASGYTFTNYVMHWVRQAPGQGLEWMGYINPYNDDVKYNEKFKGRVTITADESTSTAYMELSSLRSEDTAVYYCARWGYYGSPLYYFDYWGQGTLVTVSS VL: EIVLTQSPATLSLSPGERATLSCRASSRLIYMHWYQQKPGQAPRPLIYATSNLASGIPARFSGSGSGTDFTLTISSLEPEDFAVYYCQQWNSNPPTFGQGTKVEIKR; 61.9%
ADC4-16 (antibody, human IgG1, kappa, V domains shown, conjugator-linker-payload on cysteine thiols after TCEP reduction (DAR8), maleimide hydrolysed; residues not numbered; structure given only as a drawing) VH: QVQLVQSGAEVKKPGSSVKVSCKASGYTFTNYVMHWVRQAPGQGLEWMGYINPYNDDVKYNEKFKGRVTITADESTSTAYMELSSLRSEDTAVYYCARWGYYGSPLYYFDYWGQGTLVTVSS VL: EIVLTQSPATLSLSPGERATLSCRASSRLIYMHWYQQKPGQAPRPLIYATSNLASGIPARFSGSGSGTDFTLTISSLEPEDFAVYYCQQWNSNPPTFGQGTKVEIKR; 62.2%

Recorded result, ADC4-14 (antibody, human IgG1, kappa, V domains shown, conjugator-linker-payload on cysteine thiols after TCEP reduction (DAR8), maleimide hydrolysed; residues not numbered; structure given only as a drawing) VH: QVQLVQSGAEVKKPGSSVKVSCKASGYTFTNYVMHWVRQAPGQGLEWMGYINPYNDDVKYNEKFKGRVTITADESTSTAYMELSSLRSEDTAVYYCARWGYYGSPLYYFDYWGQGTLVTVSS VL: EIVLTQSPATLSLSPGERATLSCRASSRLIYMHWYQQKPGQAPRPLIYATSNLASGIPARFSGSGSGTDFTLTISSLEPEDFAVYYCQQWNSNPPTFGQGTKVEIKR , Emax (%), ADC direct killing, Capan-1 (Low), 3D: 61.3%

Recorded result, ADC4-B (antibody, human IgG1, kappa, V domains shown, conjugator-linker-payload on cysteine thiols after TCEP reduction (DAR8); residues not numbered; structure given only as a drawing) VH: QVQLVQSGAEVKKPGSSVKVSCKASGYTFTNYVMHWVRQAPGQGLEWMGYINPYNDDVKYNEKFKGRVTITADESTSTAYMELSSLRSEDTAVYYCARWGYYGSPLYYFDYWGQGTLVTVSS VL: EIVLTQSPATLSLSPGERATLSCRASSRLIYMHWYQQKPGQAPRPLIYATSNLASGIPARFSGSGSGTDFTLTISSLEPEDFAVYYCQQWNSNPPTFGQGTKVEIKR , Emax (%), ADC direct killing, Capan-1 (Low), 3D: 74.3%

Recorded result, ADC4-11 (antibody, human IgG1, kappa, V domains shown, conjugator-linker-payload on cysteine thiols after TCEP reduction (DAR8), maleimide hydrolysed; residues not numbered; structure given only as a drawing) VH: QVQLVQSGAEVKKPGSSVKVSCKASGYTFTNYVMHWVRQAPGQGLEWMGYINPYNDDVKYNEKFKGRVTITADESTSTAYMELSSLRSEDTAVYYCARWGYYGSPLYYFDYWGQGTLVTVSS VL: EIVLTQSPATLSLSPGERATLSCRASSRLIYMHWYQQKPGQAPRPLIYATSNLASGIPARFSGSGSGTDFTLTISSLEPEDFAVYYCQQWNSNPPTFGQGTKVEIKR , Emax (%), ADC direct killing, Capan-1 (Low), 3D: 62.4%

Values from patent US20250352659A1
